- procedure.details: Drug repurposing screens with cells derived from glioblastoma tumor samples (AID 1345199); also: % is scaled to controls: 0 for no effect and ±100 for the full control effect
- measurement.setup: GBM patient neurospheres viability, ATP luminescence, 48 h; at 46.1 µM (top of the series); tumour line C
Results filed as inconclusive are left out.
property.label: activity, negative = cell killing (%)
Kindly provide the numeric value in % only, without the unit symbol.

Before answering, review these 10 worked examples.
| compound | readout.unit | activity, negative = cell killing |
| --- | --- | --- |
| CC12CCC(CC1)C(C)(C)O2 | % | -12.5 |
| CCCCCCCCCCCCCCCCCCOCC(O)CO (centres undefined) | % | 24.6 |
| CC1(C)OC(=O)NC1=O | % | 10.3 |
| C[C@]12CC[C@@H]3c4ccc(O)cc4CC[C@H]3[C@@H]1CCC2=O | % | -9.33 |
| CC(=O)NC(Cc1ccccc1)C(=O)O (centres undefined) | % | -23.9 |
| O=C1N=C(O)CN1/N=C/c1ccc(-c2ccc([N+](=O)[O-])cc2)o1 | % | -1.99 |
| CCC(=O)c1ccc(O)cc1 | % | -21.6 |
| CN(C)CCN(Cc1ccccc1)c1ccccn1 | % | -4.16 |
| O=C(O)COc1nn(Cc2ccccc2)c2ccccc12 | % | -16.4 |
| CC1=C(/C=C/C(C)=C/C=C/C(C)=C/C(=O)O)C(C)(C)CCC1 | % | -15.9 |

Can you look up the measured activity, negative = cell killing of `Cc1c(O)cccc1C(=O)N[C@@H](CSc1ccccc1)[C@H](O)CN1C[C@H]2CCCC[C@H]2C[C@H]1C(=O)NC(C)(C)C` for me?
0.268

Can you look up the measured activity, negative = cell killing of CC1(C)S[C@@H]2[C@H](NC(=O)Cc3ccccc3)C(=O)N2[C@H]1C(=O)O (tested in a mixture with another compound) for me?
-9.44

Can you look up the measured activity, negative = cell killing of `C[C@](N)(Cc1ccc(O)cc1)C(=O)O` for me?
0.308

Can you look up the measured activity, negative = cell killing of `CCCn1cnc2c1c(=O)n(CCCCC(C)=O)c(=O)n2C` for me?
14.2

Can you look up the measured activity, negative = cell killing of `N[C@@H](CSSC[C@H](N)C(=O)O)C(=O)O` for me?
-5.12

Where do the numbers come from? From PubChem BioAssay (NCATS).
